- ASSAYED_TARGET: recombinant S. aureus MetRS enzyme (Staphylococcus aureus)
- Sequence (A0A0H2XID2 2-657): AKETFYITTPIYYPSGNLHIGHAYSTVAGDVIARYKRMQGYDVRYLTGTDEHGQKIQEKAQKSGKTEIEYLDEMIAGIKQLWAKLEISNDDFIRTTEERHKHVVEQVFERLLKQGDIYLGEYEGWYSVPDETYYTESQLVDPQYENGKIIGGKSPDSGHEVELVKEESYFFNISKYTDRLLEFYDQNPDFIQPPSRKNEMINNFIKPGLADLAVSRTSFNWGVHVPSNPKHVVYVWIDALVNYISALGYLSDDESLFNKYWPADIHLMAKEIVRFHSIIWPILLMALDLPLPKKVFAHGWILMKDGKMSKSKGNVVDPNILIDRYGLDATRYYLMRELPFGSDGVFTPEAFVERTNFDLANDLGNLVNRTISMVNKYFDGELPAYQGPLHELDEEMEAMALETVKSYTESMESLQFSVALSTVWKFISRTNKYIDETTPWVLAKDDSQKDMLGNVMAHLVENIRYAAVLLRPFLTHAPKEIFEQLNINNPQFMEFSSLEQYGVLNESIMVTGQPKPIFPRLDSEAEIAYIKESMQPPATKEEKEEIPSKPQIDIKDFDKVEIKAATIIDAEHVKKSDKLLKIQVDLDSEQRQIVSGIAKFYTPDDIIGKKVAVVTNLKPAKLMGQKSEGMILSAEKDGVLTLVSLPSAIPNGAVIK
- METHOD: Inhibition of SaMetRS, ATP depletion assay
- Format: biochemical

# MOLECULE, IC50
measured = [
    ("O=C(O)c1cn(C2CC2)c2cc(N3CCNCC3)c(F)cc2c1=O [CIP, ciprofloxacin]", "> 10 µM"),
]

---

- METHOD: Murine pharmacokinetics studies (oral, dried blood spots)
- Format: in vivo, mice
- CONDITION_CONTEXT: mouse, whole blood (dried blood spots), po, 50 mg/kg, 50 mg/kg single oral dose; read-out: Mouse Oral PK DBS: Average Cmax
# Cmax annotations

# CHEMICAL_STRING, Cmax [ng/mL]
rows = [
    ("CC(=O)NC[C@H]1CN(c2ccc(N3CCOCC3)c(F)c2)C(=O)O1", 26500),
    ("CCn1c(Cc2ccc(OC)cc2Cl)cn(Cc2nc3nc(F)ccc3[nH]2)c1=O", 5450),
    ("CCn1c(Cc2ccc(OC)cc2Cl)cn(Cc2nc3nc(Cl)ccc3[nH]2)c1=O", 7570),
]

Reference for the values: patent US11584744B2
